# System: MS2 coat protein
# Assay Info: apparent KD of MS2 coat protein; higher = weaker reporter binding
# Measurement Parameters: Eterna round: R107; input ligand: none
Experimental Endpoint: apparent KD of MS2 coat protein (nM)
Numbers only, in nM.

Consider the worked cases shown below.
{"Residue Sequence": "GGCGCGAGCCAACAUGAGGAUCACCCAUGUCGAGGACCGGUACGGCCGCCACUCGAACGAGUGAAGCGCGCGCGCGCGCGCGCGC [Uaa]", "Experimental Endpoint": "apparent KD of MS2 coat protein", "Assay Value": 61.5}
{"Residue Sequence": "UUUUAGCAUCGAAGGAGCGCUGGUGAAACUGACUAUGGAACAUGAGGAUCACCCAUGUGCUAGCAGGUAGGUCGCGAUGCUAUUU [SSAB NP+V+V2 #10]", "Experimental Endpoint": "apparent KD of MS2 coat protein", "Assay Value": 17.6}
{"Residue Sequence": "CGAAAGCUCCUUAUGUGCUUUCGACUGGAAGGAGCGAGCGAAAGCUCAGGUAGGUCGCCAGAAACAUGAGGAUCACCCAUGUAAU [(A)''-(M)'-(A)'(Arg1)-(Arg2)-(M1)-(M2)_Design9]", "Experimental Endpoint": "apparent KD of MS2 coat protein", "Assay Value": 18}
{"Residue Sequence": "CCUCGGGACCGAAGGAGCGAGAUAACAACAAUGGGUCUCUACACAUGAGGAUCACCCAUGUCUCAGGUAGGUCGCGGUACCUUAG [Exclusion Arginine B GF23]", "Experimental Endpoint": "apparent KD of MS2 coat protein", "Assay Value": 261}
{"Residue Sequence": "AUACAUGAGGAUCACCCAUGUAUGGAUGAAGGAGCGACCAGAGGGUCAGGUAGGUCGCAUCACAUGAGGAUCACCCAUGUAGAAA [DOUBLE!!! :-D #11]", "Experimental Endpoint": "apparent KD of MS2 coat protein", "Assay Value": 23.4}
{"Residue Sequence": "GGUUAGGUUUUUGAUACCAGCUAUUGGUGUCAUCUGAGGAUCACCCAGGUCUUGUGUUUUAGCCCUUGGCAGCAAAAGUUUAGUC [SSTheo B #28]", "Experimental Endpoint": "apparent KD of MS2 coat protein", "Assay Value": 88.4}
{"Residue Sequence": "ACUAGUUGUGCAGAUACCAGAUAUGAGGAUCACCCAUAUUUGGGAUGUUCGCAUCUUCCUGUCCCUUGGCAGCUGUACAUCUAGA [Omei Theo B Exc v7]", "Experimental Endpoint": "apparent KD of MS2 coat protein", "Assay Value": 37.3}
{"Residue Sequence": "GCUGCUUAGGGAAGGAGCGCUGCGGAAUUGUGGAGGACAUGAGGAUCACCCAUGUUCCUGCGGCAGGUAGGUCGCUUUGGGCAGC [#17 Exclusion - Arginine B]", "Experimental Endpoint": "apparent KD of MS2 coat protein", "Assay Value": 40.3}

State the recorded apparent KD of MS2 coat protein for every item in the following list.
1. AACAUGAGGAUCACCCAUGUUGUAAGGGAAGGAGCGCCUAAUCAGGCAGGUAGGUCGCCCAACAUGAGGAUCACCCAUGUUGUAU [Exclusion Arginine A 2]
2. ACACGAAGCUGAAGGAGCGUGGUAUAAUUUUUUACAUGAGGAUCACCCAUGUCUCAUUUUUCACAGGUAGGUCGCAGAUGCGUGA [JR_SSArginiB_Sub015]
3. AACAUGAGGAUCUUCCUUAAGUGAACUGAAGGAGCGCCAGAUAUGGCAGGUAGGUCGCAGCGAACAUGAGGAUCACCCAUGUUAA [Arg A Ex t3]

Result:
1. 75.3
2. 71.5
3. 29.4

----------
# Tested on: K4 kissing-loop RNA reporter
# Assay Info: apparent KD of K4 kissing-loop reporter; higher = weaker reporter binding
# Measurement Parameters: Eterna round: R107; input ligand: arginine 13.2 mM
# label = Condition met if apparent KD of K4 kissing-loop reporter >= 300 nM else Condition not met

Request: State whether the measured apparent KD of K4 kissing-loop reporter reaches 300 nM, counting equality as reaching it, for AAGCAGUCAGGAUCGAAGAUCCUGCAAUACCGAGGACCGGUACGGCCGCCACUCGGAGUGAUGUUCCGAAGACUGCAAAAUAAAA [#SwitchBubble 7]
Result: Condition not met

Request: Reported apparent KD of K4 kissing-loop reporter at or above 300 nM? AAGUACACGAUAGUGUACACCUAGUGAUGUUAGGAUAUGCAGAUAUGCAGAAGGAACAAGUCAUCUGACAAUAGUCGGAUGACAA [FmnAX 6 #OpenEnded #K4Early]
Result: Condition not met

Request: State whether the measured apparent KD of K4 kissing-loop reporter reaches 300 nM, counting equality as reaching it, for AUUUUGGUUGAGAGUGAUGUUCCUUGUGUUCGAGGACCGGUACGGCCGCCACUCGGGUAGAAAAUAAAAGAAAUGUUUGAUUUUU [BDazzled - #11 SS Tryptophan A]
Result: Condition not met

Request: In plain terms: is recorded apparent KD of K4 kissing-loop reporter at least 300 nM for CGAGUCCUGAGGAGUGAUGUUCCUCGGCCACGAGGACCGGUACGGCCGCCACUCGUUACUCGGGCUUAGUGGCUAGCACUAAGCU [Tirete] ?
Result: Condition not met

Request: Kindly determine if apparent KD of K4 kissing-loop reporter recorded for CGUUUAUAGCAGGAUACCAGUACCCAUUAUGUACGUUUAUAGUAGAGUGAUGUUCUAAAGUACCCUUGGCAGCUUCCUGUGUCCC [ExTheophylB.Ab] is above or exactly 300 nM.
Result: Condition not met

Request: Exam item: decide whether the reported apparent KD of K4 kissing-loop reporter for UGUCAUUGGUCUGAUACCAGUUAGACCGAUAGGUCAAAACUGGAGUGAUGUUCCUAAAAUAACCCUUGGCAGCAGACCGAUGACU [TheoBS 2 #SwitchBubble #StaticStem] is at least 300 nM.
Result: Condition met

Request: Is apparent KD of K4 kissing-loop reporter for UUUGGAGUGGGAGGAUAUCCUAAUAUGGGUGAUGUUAGCGAUGUUGAAAGUGUAGUGAUGUUGUGCGGAGAAGGUCCAGUGUAGA [BDazzled - #14 - Exc. FMN B] at or above 300 nM?
Result: Condition not met

Request: # bool: apparent KD of K4 kissing-loop reporter of UGUGAUGUGUAGUGUAAUGUUUUGCGGGAUACCAGAGUCUUUUUAUUCCCUUGGCAGCUUGAGUGAUGUUUGAUGCUGUUCUUGU [llmdmullin] >= 300 nM
Result: Condition met

Request: hey, is apparent KD of K4 kissing-loop reporter for this one >= 300 nM? GGAUCCACCAGUGAUGUUGGAGAAAACUCGAAGGAUAUGACGAAAGUCAGAAGGUCGUAGACUGGACAAAGUCCGGUCGGAUCCA [FmnA 19 G30+C56]
Result: Condition met

Request: Given the entry GGAGGGAUCUCGGCCGCCACUCGUGGGAAAUGGGCCUCAGGGAUAUAGUGAUGUUAUGUAAAGAAGAGGACCGGGAGAAGGAAGG [ExTryptoB.Dg] , answer whether its apparent KD of K4 kissing-loop reporter meets or surpasses 300 nM.
Result: Condition not met

Request: Hello, I need to know if CUUGGCAUGCGCGAUACCAGCGAACAUAGCAAGCUACGGGUAGUGAUGUUAUCUGAAUAACGCCCUUGGCAGCGCACAUGCCGGC [clock] has measured apparent KD of K4 kissing-loop reporter not below 300 nM. Thanks!
Result: Condition met

Request: Identify whether the reported apparent KD of K4 kissing-loop reporter of the following sequence is 300 nM or greater: UGUCUUUUUUUGAUGUUUUUUGUAUAAUGGCAGGAUAUCGUAGAUGCGAGAAGGGCUUUUAUGCGUUAUGAGUGAUGUUUGUAGG [vjjbvmullin]
Result: Condition not met

Request: Entry AGUGCACUGUCAGGAUAUAUACAGUGAUGUUGUGUAUGUCGGCAAGUCAAAGACUUGCCAUUCUGUGUAGAAGGGACUGUGUACA [#04 K4 FMN B Exclusion] : is its apparent KD of K4 kissing-loop reporter no less than 300 nM?
Result: Condition not met

Request: Determine whether this sequence has apparent KD of K4 kissing-loop reporter no lower than 300 nM: AACUGUCAAGGACAACAUUACUGAGGUGAUACCAGGUUUGAGAGGAUCCCUUGGCAGCACCAACUUGCAGUGAUGUUGCAAGUAA [BrourdMod 15 - Jieux - Exclusion - Theophylline A]
Result: Condition not met

----------
# Tested on: K4 kissing-loop RNA reporter;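 note: bound reporter read as fluorescence of individual clusters on recovered sequencing chips by microscopy, with normalized cluster intensities fitted with a binding model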
# Assay Info: apparent KD of K4 kissing-loop reporter; higher = weaker reporter binding
# Measurement Parameters: Eterna round: R107; input ligand: FMN 200 uM
Experimental Endpoint: apparent KD of K4 kissing-loop reporter (nM)
Give bare numbers, in nM.

Illustrative cases are given below, each with its answer.
{"Residue Sequence": "GGGAGCAAAGCUCCCGGAUGCUAUUACCAGUAGGAUAUCUGGAAACAGAGAAGGGCUAAGCCAGUGAUGUUGGUUUCGAGCAUCC", "apparent KD of K4 kissing-loop reporter (nM)": 596}
{"Residue Sequence": "AACCUACGAUCACAAUAGUGAUUGUAGGACUAGGAUAUGCUGAAAAGCAGAAGGAGUGAUGUUCCGUCAUGAAUAACAUGACAAA [FmnAX 3 #OpenEnded #K4Late #CoaxialStacking]", "apparent KD of K4 kissing-loop reporter (nM)": 610}

Could you now consider this next sequence?
The sequence UAACUCUUGCAGUGAUGUUGCAAGUAUGCUCAGGAUAUCAGGAAACUGAGAAGGGAGUUUCCUGAGCUUCUGCAAGAGCUCAGAA [KL-SSFMN-A6] showed apparent KD of K4 kissing-loop reporter equal to 618

Data provenance: the supplement of paper PMC9170038
